- SYSTEM TESTED: GABA A α5 (human receptors of composition α5β3γ2) (Homo sapiens, UniProt P18507+P31644)
- Construct: membranes prepared from cell pellets
- ASSAY DETAILS: [3H]flumazenil competition binding, HEK293 cells expressing human GABA A α5β3γ2 receptors
- ASSAY CONTEXT: [3H]-Flumazenil 0.5 nM, means of two determinations, read-out: hKi (GABA Aα5)
# pKi values compiled below
Expect pKi as a plain number equal to -log10 of the molar concentration.

Cc1onc(-c2ccccc2)c1COc1ccc(C(=O)NN2CCS(=O)(=O)CC2)cn1 | 8.59

INPUT: Which measured pKi value corresponds to "CCCCc1noc(C)c1COc1ccc(C(=O)NN(C)C)cn1" ?
OUTPUT: 7.73

INPUT: Which measured pKi value corresponds to "Cc1onc(-c2ccccc2)c1COc1ccc(C(=O)NN2CCCC2)cn1" ?
OUTPUT: 8.59

INPUT: Which measured pKi value corresponds to "Cc1onc(-c2ccccc2)c1COc1ccc(C(=O)NN)cn1" ?
OUTPUT: 8.27

----------
- SYSTEM TESTED: GABA A α5 (human receptors of composition α5β3γ2) (Homo sapiens, UniProt P18507+P31644)
- Construct: membranes prepared from cell pellets
- ASSAY DETAILS: [3H]flumazenil competition binding, HEK293 cells expressing human GABA A α5β3γ2 receptors
- ASSAY CONTEXT: [3H]-Flumazenil 0.5 nM, means of two determinations, read-out: hKi (GABA Aα5)
PROPERTY NAME: pKi
Expect pKi as a plain number equal to -log10 of the molar concentration.

Here are 2 compounds together with their reported answers.
CCCCc1noc(C)c1COc1ccc(C(=O)NN2CCCC2)cn1 [Example 9] | 7.71
Cc1onc(-c2ccc(F)cn2)c1COc1ccc(C(=O)NN2CCOCC2)cn1 [Example 7] | 9.40

INPUT: Record lookup: for GABA A α5 (human receptors of composition α5β3γ2) (Homo sapiens, UniProt P18507+P31644), what pKi belongs to Cc1onc(-c2ccccc2)c1COc1ccc(C(=O)NN2CCCCC2)cn1 [Example 3] ?
OUTPUT: 8.40

INPUT: Record lookup: for GABA A α5 (human receptors of composition α5β3γ2) (Homo sapiens, UniProt P18507+P31644), what pKi belongs to Cc1onc(-c2ccccc2)c1COc1ccc(C(=O)NN2CCOCC2)cn1 [Example 2] ?
OUTPUT: 9.22

INPUT: Record lookup: for GABA A α5 (human receptors of composition α5β3γ2) (Homo sapiens, UniProt P18507+P31644), what pKi belongs to CCCCc1noc(C)c1COc1ccc(C(=O)NN2CCOCC2)cn1 [Example 8] ?
OUTPUT: 8.19

INPUT: Record lookup: for GABA A α5 (human receptors of composition α5β3γ2) (Homo sapiens, UniProt P18507+P31644), what pKi belongs to Cc1onc(-c2ccccc2)c1COc1ccc(C(=O)NN2CCOCC2)nn1 [Example 11] ?
OUTPUT: 8.02

INPUT: Record lookup: for GABA A α5 (human receptors of composition α5β3γ2) (Homo sapiens, UniProt P18507+P31644), what pKi belongs to Cc1onc(-c2ccccc2)c1COc1ccc(C(=O)NNS(C)(=O)=O)cn1 [Example 6] ?
OUTPUT: 8.32

Provenance of the data: patent US20100280019A1
